Assay: Half-life in Human Liver Microsomes (HLM)
Format: in vitro ADME
Conditions: 1 μM compound, 0.78 mg/mL HLM, 37° C., 60 min
Reported % Remaining @ 60 min by item:
Return type: number; implicit unit %.

Worked cases, answers included:
compound	endpoint_unit	measured_number
COc1ccc2ccccc2c1C(c1ccc(F)cc1)C(C)(C)C(=O)N1CC(C)CC(C)C1 (stereo not shown) [Compound 157, reference compound]	%	6.78
COc1cc(O)c(C(CC(=O)N2CC(C)CC(C)C2)c2ccc(C(=O)O)cc2)c(OC)c1 (stereo not shown)	%	51.36
CC1CC(C)CN(C(=O)CC(c2ccc(-n3cncn3)cc2)c2ccc3c(c2)OCO3)C1 (stereo not shown)	%	9.02

Could you now consider this next compound?
Determine from records and report % Remaining @ 60 min for COc1cc(OC)c(C(c2ccccc2)C(C)(C)C(=O)N2CC(C)OC(C)C2)c(OC)c1 (stereo not shown) [Compound 150, reference compound]
6.79

###

Assay: Half-life in Human Liver Microsomes (HLM)
Assay type: in vitro ADME
Settings: human, human liver microsomes, pH 7.4; 1 μM compound, 0.78 mg/mL HLM, 37° C.; read-out: CLint (uM/Min/mg proteins)
Below, each entry is listed with its recorded microsomal CLint at 1 μM.
Answer in µL/min/mg, number only, no unit symbol.

molecule	microsomal CLint at 1 μM, µL/min/mg
COc1cc(OC)c(C(c2ccccc2)C(C)(C)C(=O)N2CC(C)OC(C)C2)c(OC)c1 (stereo not shown) [Compound 150, reference compound]	173
CC1CC(C)CN(C(=O)CC(c2ccc(-n3cncn3)cc2)c2ccc3c(c2)OCO3)C1 (stereo not shown)	108
COc1ccc2ccccc2c1C(c1ccc(F)cc1)C(C)(C)C(=O)N1CC(C)CC(C)C1 (stereo not shown) [Compound 157, reference compound]	201

Now turn to the next molecule.
Dear colleague, please send me the reported microsomal CLint at 1 μM for COc1cc(O)c(C(CC(=O)N2CC(C)CC(C)C2)c2ccc(C(=O)O)cc2)c(OC)c1 (stereo not shown) when you can.
21.6

###

Target: RORγt (Mus musculus)
Construct: expressed in transfected cells; the other entry of the earlier key: GAL4 (P04386, Regulatory protein GAL4)
Experiment: RORγt S2 cell reporter assay (Gal4-RORγt fusion, UAS-luciferase)
Type: cell-based
Settings: Table 1; % of the maximal response of control inhibitor (Digoxin), set at 100%; read-out: Efficacy (%)
Measured Emax by item
Reply with just the number (in %).

Here are 5 compounds together with their reported answers.
compound	assay_target	Emax (%)
COc1cc(O)c(C(CC(=O)N2CC(C)CC(C)C2)c2ccc(C(N)=O)cc2)c(OC)c1 (centres unmarked)	RORγt (Mus musculus)	96.7
COc1c(C(CC(=O)N2CC(C)CC(C)C2)c2ccc3c(c2)OCO3)c(O)cc2occc12 (centres unmarked)	RORγt (Mus musculus)	94.5
COc1cc(O)c(C(CC(=O)N2CCCC(C)C2)c2cccs2)c(OC)c1 (centres unmarked)	RORγt (Mus musculus)	95
COc1cc(O)c(C(CC(=O)N2CC(C)CC(C)C2)c2ccc(C(C)=O)cc2)c(OC)c1 (centres unmarked)	RORγt (Mus musculus)	93.6
COc1cc(O)c(C(CC(=O)N2CC(C)CC(C)C2)c2cccnc2)c(OC)c1 (centres unmarked)	RORγt (Mus musculus)	96.9

Given the compound COc1cc(O)c(C(CC(=O)N2CC(C)CC(C)C2)c2csc3ccccc23)c(OC)c1 (centres unmarked) , write its reported Emax.
-90.8

Please indicate Emax recorded for COc1cc(O)c(C(CC(=O)N2CC(C)CC(C)C2)c2cccc(C(=O)O)c2)c(OC)c1 (centres unmarked)
88.7

Return reported Emax. Input compound: COc1cc(O)c(C(CC(=O)N2CC(C)CC(C)C2)c2ccc(S(=O)(=O)N(C)C)cc2)c(OC)c1 (centres unmarked)
103

###

Molecular target: RORγt (Mus musculus, UniProt P51450)
Construct: expressed in transfected cells; the other entry of the earlier key: GAL4 (P04386, Regulatory protein GAL4)
Sequence (P51450 with tags, fused parts or gaps): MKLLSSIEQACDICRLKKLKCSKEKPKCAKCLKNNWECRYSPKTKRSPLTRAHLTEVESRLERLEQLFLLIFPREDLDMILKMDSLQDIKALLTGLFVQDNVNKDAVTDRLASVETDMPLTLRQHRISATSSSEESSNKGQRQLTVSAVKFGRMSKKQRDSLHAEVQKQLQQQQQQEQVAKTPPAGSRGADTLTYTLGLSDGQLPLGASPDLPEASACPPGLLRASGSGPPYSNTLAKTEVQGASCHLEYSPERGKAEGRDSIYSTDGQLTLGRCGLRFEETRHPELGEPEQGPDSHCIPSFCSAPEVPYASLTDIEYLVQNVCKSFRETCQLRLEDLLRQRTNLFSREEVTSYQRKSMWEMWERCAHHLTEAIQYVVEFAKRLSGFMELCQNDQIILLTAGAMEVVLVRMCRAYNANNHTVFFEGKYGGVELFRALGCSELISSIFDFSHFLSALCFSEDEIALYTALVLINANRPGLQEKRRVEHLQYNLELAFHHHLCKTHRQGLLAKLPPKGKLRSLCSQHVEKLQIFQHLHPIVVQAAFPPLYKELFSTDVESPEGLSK
Assay: RORγt S2 cell reporter assay (Gal4-RORγt fusion, UAS-luciferase)
Format: cell-based
Details: Table 1; % of the maximal response of control inhibitor (Digoxin), set at 100%; read-out: Efficacy (%)
measurement_kind: Emax (%)
Give the value in % but do not write % after it.

Previously resolved entries follow.
compound	measurement_kind	measured_number
COc1cc(O)c(C(CC(=O)N2CC(C)CC(C)C2)c2ccncc2)c(OC)c1 (stereo not shown)	Emax	119
COc1cc(O)c(C(CC(=O)N2CC(C)CC(C)C2)c2cccs2)c(OC)c1 (stereo not shown)	Emax	94.9
COc1cc(OC)c(C(CC(=O)N2C[C@H](C)C[C@H](C)C2)c2ccc(C(=O)O)cc2)c(OC)c1 (stereo partly shown)	Emax	87

Could you now consider this next compound?
Supply Emax value. Item: COc1cc(O)c(C(CC(=O)N2CC(C)CC(C)C2)c2cccc(S(C)(=O)=O)c2)c(OC)c1 (stereo not shown)
93.8

###

Biological target: RORγt (Mus musculus, UniProt P51450)
Construct: expressed in transfected cells; the other entry of the earlier key: GAL4 (P04386, Regulatory protein GAL4)
Test: RORγt S2 cell reporter assay (Gal4-RORγt fusion, UAS-luciferase)
Assay type: cell-based
Details: Table 1; Drosophila S2 cells, luciferase reporter; read-out: IC50
measurement_kind: IC50

molecule	result
COc1cc(O)c(C(CC(=O)N2CC(C)CC(C)C2)c2ccc(C(=O)O)cc2)c(OC)c1 (stereo not shown)	1000 to 10000 nM

Please turn your attention to the following entry.
Return reported IC50. Input molecule: COc1cc(OC)c(C(CC(=O)N2C[C@H](C)C[C@H](C)C2)c2ccc(C(=O)O)cc2)c(OC)c1 (stereo partly shown)
< 1000 nM

###

Molecular target: RORγt (Mus musculus, UniProt P51450)
Construct: expressed in transfected cells; the other entry of the earlier key: GAL4 (P04386, Regulatory protein GAL4)
Experiment: RORγt S2 cell reporter assay (Gal4-RORγt fusion, UAS-luciferase)
Assay type: cell-based
Conditions: Table 1; Drosophila S2 cells, luciferase reporter; read-out: IC50
Protocol: Methods: The Drosophila S2 cell line was originally purchased from Invitrogen and was maintained in Schneider's medium supplemented with 10% heat-inactivated bovine fetal calf serum and antibiotics (Invitrogen). […] A cell-based reporter assay was used to detect RORγt-mediated activity. […] After addition of 1.5 uL Photinus luciferase detection reagent, the plates were incubated 10 min at ambient temperature and then read by a ViewLux (Perkin Elmer) to detect luminescence. […]
measurement_kind: IC50

compound	result
COc1cc(O)c(C(CC(=O)N2CC(C)CC(C)C2)c2ccc(S(=O)(=O)N(C)C)cc2)c(OC)c1 (centres unmarked) [Compound 84]	11 to 50 µM
COc1cc(O)c(C(CC(=O)N2CC(C)CC(C)C2)c2cccc(C(=O)O)c2)c(OC)c1 (centres unmarked) [Compound 101]	1 to 10 µM
COc1cc(O)c(C(CC(=O)N2CC(C)CC(C)C2)c2cccc(S(C)(=O)=O)c2)c(OC)c1 (centres unmarked) [Compound 83]	1 to 10 µM
COc1cc(O)c(C(CC(=O)N2CC(C)CC(C)C2)c2cccs2)c(OC)c1 (centres unmarked) [Compound 107]	1 to 10 µM
CC1CC(C)CN(C(=O)CC(c2ccc3c(c2)OCO3)c2c(O)ccc3cccnc23)C1 (centres unmarked) [Compound 146]	1 to 10 µM

Please give the documented IC50 of COc1cc(O)c(C(CC(=O)N2CC(C)CC(C)C2)c2cccnc2)c(OC)c1 (centres unmarked) [Compound 106]
1 to 10 µM

Kindly indicate its recorded IC50. Item: COc1cc(O)c(C(CC(=O)N2CC(C)CC(C)C2)c2ccncc2)c(OC)c1 (centres unmarked) [Compound 108]
11 to 50 µM

Please list IC50 recorded for the compound COc1cc(O)c(C(CC(=O)N2CC(C)CC(C)C2)c2csc3ccccc23)c(OC)c1 (centres unmarked) [Compound 79]
1 to 10 µM

###

Biological target: RORγt (Mus musculus, UniProt P51450)
Construct: expressed in transfected cells; the other entry of the earlier key: GAL4 (P04386, Regulatory protein GAL4)
Experiment: RORγt S2 cell reporter assay (Gal4-RORγt fusion, UAS-luciferase)
Type: cell-based
Details: Table 1A; Drosophila S2 cells, luciferase reporter; read-out: IC50
measurement_kind: IC50

compound	IC50
COc1cc(O)c(C(CC(=O)N2C[C@H](C)C[C@H](C)C2)c2c[nH]c(C)n2)c(OC)c1 (some centres unmarked) [Compound 203]	1 to 10 µM
COc1cc(O)c(C(CC(=O)N2CC(C)C[C@@H](C)C2)c2nc3ccccc3s2)c(OC)c1 (stereo in doubt) [Compound 205]	< 1 µM

Provide IC50 value for the following compound: COc1cc(O)c(C(CC(=O)N2C[C@H](C)C[C@H](C)C2)c2ccc(C(=O)O)cc2)c(OC)c1 (some centres unmarked) [Compound 202]
< 1 µM

Check the records and state IC50 for COc1cc(O)c(C(CC(=O)N2C[C@H](C)C[C@H](C)C2)c2cnccn2)c(OC)c1 (some centres unmarked) [Compound 204]
1 to 10 µM

Supply reported IC50 belonging to this compound: COc1cc(O)c(C(CC(=O)N2C[C@H](C)C[C@H](C)C2)c2ccc(OC)nc2)c(OC)c1 (some centres unmarked) [Compound 206]
< 1 µM
